The entries below are paired with their reported growth inhibition.
# METHOD_NOTES: NCI Yeast Anticancer Drug Screen. Data for the bub3 strain (AID 167)
# EXPERIMENTAL_SETUP: S. cerevisiae bub3 mutant strain, at 5.0 µM (retest, dose inferred, filed as 0.5), hits give high values
About 79,000 compounds went through this panel and 15% of them were active in at least one assay; those are over-represented in the sample as a whole.
Form entry: value (%) — number only.

Consider the worked cases shown below.
1) CCOC(=O)CCC(=O)Oc1ccc2c(c1OC(=O)CCC(=O)OCC)C(=O)c1ccccc1C2=O | 8
2) CCCC(=O)Oc1ccc(OCc2ccccc2)cc1 | 23
3) Oc1ccc(C2CCCCC2)c(O)c1 | 7

Exercise: Which measured growth inhibition value corresponds to Fc1cccc(CSc2ncnc3c2ncn3C2CCCS2)c1 (configuration not stated) ?
Key: 1

Exercise: Given the entry `CCOC(=O)C(=C=C=C(c1ccccc1)c1ccccc1)C(=O)OCC` , report its measured growth inhibition.
Key: -4

Exercise: // lookup growth inhibition for `CN(C(=O)c1ccc(Cl)cc1)C(=S)N1CCN(c2ccccc2)CC1`
Key: 1

Exercise: # get_value(readout='growth inhibition', item= `Oc1cccc2cc(Br)cnc12` )
Key: -25
